# TEST_SUMMARY: Aqueous solubility in PBS, pH 7.4
# Format: physicochemical
# EXPERIMENTAL_CONTEXT: phosphate buffered saline, pH 7.4, aqueous buffer, thermodynamic from solid, pH 7.4 phosphate buffered saline, 24 hours, amorphous or crystalline material; read-out: Aqu. Solubility
MEASUREMENT_TYPE: solubility at 24 h (µg/mL)

molecule="C#C[C@]1(COC(=O)OC(C)C)O[C@@H](n2ccc3c(N)nc(Cl)nc32)C[C@@H]1O [Example 23]" measurement_type="solubility at 24 h" recorded_result=351

A = C#C[C@]1(CO)O[C@@H](n2ccc3c(N)nc(Cl)nc32)C[C@@H]1OC(=O)OCCC [Example 80]
B = C#C[C@]1(COC(=O)CCCCC)O[C@@H](n2ccc3c(N)nc(Cl)nc32)C[C@@H]1OC(C)=O [Example 185]
C = C#C[C@]1(CO)O[C@@H](n2ccc3c(N)nc(Cl)nc32)C[C@@H]1OC(=O)OCCCC [Example 82]
// smallest solubility at 24 h at index 0, largest at the end Reply with the labels, ordered as the question asks.
B, C, A

Where do these numbers come from? They come from patent US20240287124A1.
